- TARGET_ENTITY: human recombinant HDAC6 (Homo sapiens)
- Sequence (Q9UBN7 whole entry): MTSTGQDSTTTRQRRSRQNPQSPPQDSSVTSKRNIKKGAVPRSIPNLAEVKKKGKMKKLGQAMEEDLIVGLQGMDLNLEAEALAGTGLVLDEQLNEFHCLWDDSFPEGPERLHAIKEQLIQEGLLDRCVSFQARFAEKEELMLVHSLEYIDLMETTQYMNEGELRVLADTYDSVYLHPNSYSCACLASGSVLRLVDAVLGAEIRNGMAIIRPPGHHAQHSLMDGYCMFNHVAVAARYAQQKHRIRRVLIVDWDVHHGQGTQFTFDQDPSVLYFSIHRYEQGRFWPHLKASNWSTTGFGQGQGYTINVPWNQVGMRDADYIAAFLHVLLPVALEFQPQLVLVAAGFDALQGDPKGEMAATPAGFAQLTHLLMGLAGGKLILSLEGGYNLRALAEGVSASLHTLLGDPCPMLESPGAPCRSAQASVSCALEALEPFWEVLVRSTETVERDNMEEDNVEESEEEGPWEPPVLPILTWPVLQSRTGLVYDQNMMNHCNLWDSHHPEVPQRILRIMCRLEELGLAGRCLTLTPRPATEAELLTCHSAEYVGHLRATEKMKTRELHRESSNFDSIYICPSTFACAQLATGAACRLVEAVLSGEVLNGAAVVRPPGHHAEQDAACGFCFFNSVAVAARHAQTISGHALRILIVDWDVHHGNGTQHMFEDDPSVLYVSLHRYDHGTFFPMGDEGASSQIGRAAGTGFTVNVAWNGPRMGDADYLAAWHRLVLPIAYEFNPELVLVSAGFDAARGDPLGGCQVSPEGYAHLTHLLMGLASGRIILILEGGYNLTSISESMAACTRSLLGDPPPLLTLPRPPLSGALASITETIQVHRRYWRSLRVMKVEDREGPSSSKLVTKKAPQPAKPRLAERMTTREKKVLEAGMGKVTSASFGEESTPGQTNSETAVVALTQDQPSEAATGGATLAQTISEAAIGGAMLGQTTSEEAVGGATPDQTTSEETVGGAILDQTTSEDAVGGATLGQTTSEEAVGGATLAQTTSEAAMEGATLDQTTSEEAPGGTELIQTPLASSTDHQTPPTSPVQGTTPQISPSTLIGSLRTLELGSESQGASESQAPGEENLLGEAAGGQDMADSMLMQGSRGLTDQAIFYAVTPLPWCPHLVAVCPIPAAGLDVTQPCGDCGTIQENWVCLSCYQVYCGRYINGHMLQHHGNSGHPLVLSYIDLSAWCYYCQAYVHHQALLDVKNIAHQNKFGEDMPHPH
- MEASUREMENT_NOTES: HDAC6 enzyme activity inhibition assay (HDAC Fluorimetric Drug Discovery Kit)
- SETTINGS: same protocol as the HDAC1 enzyme activity test
Assign pIC50 to each entry below.
Give bare numbers, as −log10 of the molar value.

Please supply pIC50 for each of the following items, keeping them in order.
1. COc1ccc(N(Cc2ccc(-c3nnc(C(F)(F)F)o3)cc2F)S(C)(=O)=O)cc1
2. CCS(=O)(=O)N(Cc1ccc(-c2nnc(C(F)F)o2)cn1)c1ccc(CN2CCN(C(C)=O)CC2)cc1

[7.19, 7.12]

Quick one: give me pIC50 for each item below, same order please.
1. CS(=O)(=O)N(Cc1ccc(-c2nnc(C(F)F)o2)cc1F)c1ccc2ncsc2c1
2. CC1CCN(CCS(=O)(=O)N(Cc2ccc(-c3nnc(C(F)F)o3)cc2)c2ccccc2)CC1
3. COC(=O)CCS(=O)(=O)N(Cc1ccc(-c2nnc(C(F)F)o2)cc1F)c1ccccc1
4. CS(=O)(=O)N(Cc1ccc(-c2nnc(C(F)(F)F)o2)cn1)c1ccc(F)c(Cl)c1

1. 7.46
2. 6.74
3. 7.54
4. 7.21

Please supply pIC50 for each of the following items, keeping them in order.
1. CS(=O)(=O)N1CC(N2CCC(S(=O)(=O)N(Cc3ccc(-c4nnc(C(F)F)o4)cn3)c3ccc(F)c(Cl)c3)CC2)C1
2. O=S(=O)(CCN1CC(O)C1)N(Cc1ccc(-c2nnc(C(F)F)o2)cc1)c1ccccc1

1. 7.82
2. 6.71
